Tested on: Candida tropicalis
method.summary: Antifungal activity against Candida tropicalis
Type: functional
recorded.metric: MIC (µg/mL)

> print(dat)
                                   compound  number
1        OC(Cn1cncn1)(Cn1cncn1)c1ccc(F)cc1F    6.25
2  OC(/C(=N/Nc1nc(-c2ccc(Br)cc2)cs1)c1ccccc1)c1ccccc1 (stereo not given)    6.25
3     COc1ccc(-c2csc(N/N=C/c3ccccc3O)n2)cc1      25
4         Brc1ccc(-c2csc(NN=C3CCCCC3)n2)cc1    12.5
5      Brc1ccc(-c2csc(N/N=C/c3ccccc3)n2)cc1      25

====

Tested on: Candida albicans
method.summary: Antifungal activity against Candida albicans
Type: functional
MIC values for the compounds below.
recorded.metric: MIC (µg/mL)

> print(dat)
                                   compound  recorded.metric  number
1          Brc1ccc(-c2csc(NN=C3CCCC3)n2)cc1              MIC    12.5
2  OC(Cn1cncn1)(Cn1cncn1)c1ccc(F)cc1F [FLUCONAZOLE]              MIC    6.25
3     COc1ccc(-c2csc(N/N=C/c3ccccc3O)n2)cc1              MIC      25
4         Brc1ccc(-c2csc(NN=C3CCCCC3)n2)cc1              MIC    12.5
5      COc1ccc(-c2csc(N/N=C/c3ccccc3)n2)cc1              MIC    12.5
6      Brc1ccc(-c2csc(N/N=C/c3ccccc3)n2)cc1              MIC    12.5
7  OC(/C(=N/Nc1nc(-c2ccc(Br)cc2)cs1)c1ccccc1)c1ccccc1 (stereo not drawn)              MIC    6.25
8          COc1ccc(-c2csc(NN=C3CCCC3)n2)cc1              MIC    12.5
